src = PubChem BioAssay AID371

experiment: A549 NSCLC cell proliferation inhibitors – ATP luminescence, human non-small cell lung line, primary screen (AID 371); settings: at 10 µM, stronger effect = higher value;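 note: compound exposure lasted 72 h before the ATP read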
The campaign covered roughly 3,300 compounds. About 280 (8.5%) were called active. The sample as a whole holds a higher share of actives than the screen did.
Short version: growth inhibition at least 20% is Y, less is N.

>  <compound>
CCOCCN1CCC(OC(C)=O)C(C)C1 (stereo unspecified)

>  <group>
N

$$$$
>  <compound>
C=CCC1(CN2CCCCCC2=O)C(=O)NC(=O)NC1=O

>  <group>
N

$$$$
>  <compound>
O=c1[nH]c(=O)n(Cc2ccco2)c(O)c1C=NCc1ccc2c(c1)OCO2

>  <group>
N

$$$$
>  <compound>
CCCCc1nc(N2CCNCC2)c(C#N)c2c1CSC(C)(C)C2

>  <group>
Y

$$$$
>  <compound>
COc1ccc(C2SCC(=O)Nc3c2c(=O)[nH]n3C2CCCCCC2)cc1 (stereo unspecified)

>  <group>
Y

$$$$
>  <compound>
CCCCCCn1c(O)c(C(C)=NC)c(=O)[nH]c1=O

>  <group>
N

$$$$
>  <compound>
O=c1[nH]c(=O)n(CCc2ccccc2)c(O)c1C=NCCCn1ccnc1

>  <group>
N

$$$$
>  <compound>
COc1ccc(C(=O)CN2CCOCC2)cc1F

>  <group>
N

$$$$
>  <compound>
CN1CCC(OC(=O)C2c3ccccc3Oc3ccccc32)CC1

>  <group>
N

$$$$
>  <compound>
CC[C@@H](CO)NC(=O)[C@@H]1C=C2c3cccc4c3c(cn4C)C[C@H]2N(C)C1

>  <group>
N

$$$$
>  <compound>
COc1ccc2[nH]cc(CCN(C)C)c2c1

>  <group>
N

$$$$
